These data points were gathered from paper doi:10.1101/718155.

- TARGET OR SYSTEM: S100A14
- METHOD NOTES: FP; direct
Reported Kd by item:
Provide the reading as a plain figure in µM.

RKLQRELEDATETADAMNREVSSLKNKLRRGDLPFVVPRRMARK [NMIIA (1894-1937) peptide] ... 98
RRLLFYKYVYKR [NCX1 (254-265) peptide] ... 71

Alright, here's another binder for you.
Given VLQTWLQDLLRRGLVRAAQ [TRPM4 (129-147) peptide] , state its recorded Kd.
12
